Data credit: patent US20260242478A1

# tested_system: T1, Anti-CD28 Fab (SEQ ID NOs: 696, 697)
# T1 construct: Biotinylated and captured on neutravidin coated plates in the phage ELISA
# T1 sequence (VH, as listed by the source, chain 1 of 2): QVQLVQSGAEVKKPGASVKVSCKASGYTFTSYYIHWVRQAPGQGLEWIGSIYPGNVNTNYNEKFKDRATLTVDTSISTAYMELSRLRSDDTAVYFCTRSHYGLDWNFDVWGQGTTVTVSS
# T1 sequence (VL, as listed by the source, chain 2 of 2): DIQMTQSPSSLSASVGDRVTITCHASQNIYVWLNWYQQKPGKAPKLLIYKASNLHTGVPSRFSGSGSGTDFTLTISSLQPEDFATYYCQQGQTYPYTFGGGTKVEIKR
# protocol: phage binding ELISA on captured anti-CD28 Fab; competitor: CD28 antigen at saturating concentration
Anti-CD28 Fab signal in the presence of CD28 below 0.07 gives FALSE; Anti-CD28 Fab signal in the presence of CD28 at or above it gives TRUE.

* YCEGHIEQYMRKCL (tested as crude clonal phage supernatant) [Phage-1211] | FALSE
* YCDGHLAEYIQKCL (tested as crude clonal phage supernatant) [Phage-1208] | TRUE
* YCDGHVGAYMWKCL (tested as crude clonal phage supernatant) [Phage-1220] | FALSE
* YCDGHLEVYMSKCL (tested as crude clonal phage supernatant) [Phage-1216] | TRUE
* YCAGHSQVYMWKCL (tested as crude clonal phage supernatant) [Phage-1210] | FALSE
* YCFGHAPEYLLKCL (tested as crude clonal phage supernatant) [Phage-1212] | TRUE

q: Decide: Anti-CD28 Fab signal in the presence of CD28 of YCEGHIEPYMQKCL (tested as crude clonal phage supernatant) [Phage-1218] >= 0.07?
a: FALSE

q: Decide: Anti-CD28 Fab signal in the presence of CD28 of YCEGHSSVYLWKCL (tested as crude clonal phage supernatant) [Phage-1214] >= 0.07?
a: FALSE

q: Decide: Anti-CD28 Fab signal in the presence of CD28 of YCAGHSSEYLQKCL (tested as crude clonal phage supernatant) [Phage-1209] >= 0.07?
a: TRUE

q: Decide: Anti-CD28 Fab signal in the presence of CD28 of YCEGHRPEYMANCL (tested as crude clonal phage supernatant) [Phage-1217] >= 0.07?
a: FALSE
